- Assay name: Exposure and tissue distribution after 14 days repeat dosing, mouse
- Assay type: in vivo
- Assay context: NMRI, mouse, brain, po; Male mice, 90 mg/kg p.o. 14 days, 2 h post last dose; read-out: Brain concentration
Recorded metric: concentration at 2 h (ng/g)
One number for each entry, in ng/g.

Data request: Give the measured concentration at 2 h of "O=c1ccc2ccc(O[C@@H]3C[C@H]4CC[C@@H](C3)N4)cc2o1" .
Data returned: 21100

---

- Assay name: Exposure and tissue distribution after 14 days repeat dosing, rat
- Assay type: in vivo
- Assay context: Wistar, rat, plasma, sc; Female rats, 5 mg/kg s.c. 14 days, 2 h post last dose; read-out: Plasma concentration
Recorded metric: concentration at 2 h

Data request: Give the measured concentration at 2 h of O=c1ccc2ccc(O[C@@H]3C[C@H]4CC[C@@H](C3)N4)cc2o1 [Compound (I)] .
Data returned: 67 ng/mL

From: patent US20220288052A1
